- run description: small-molecule microarray binders of probe aEGFR, primary screen, biochemical, biotinylated probe, 635/667 nm fluorescence (AID 1097);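 also: probe is a biotinylated anti-EGFR antibody binding compounds printed on slides; score combines fluorescence near 667 nm and signal to noise of each spot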
- study conditions: higher = more signal
So basically: composite z-score at -0.02 or higher? That is label 1. Lower than -0.02? That is label 0.

molecule=C=C(/C(=C/C[C@@H](OC(=O)c1ccncc1)c1ccccc1OCCO)c1cc(C(=O)OC)ccc1OC)C(C)C label="label 0"
molecule=CCOC(=O)C[C@H]1[C@H](OC(=O)c2ccc(-c3ccccc3)cc2)[C@@H](NC(=O)c2ccc3ccccc3n2)c2cc(OCCCO)ccc2N1C(=O)c1ccccc1 label="label 1"
molecule="Cc1ccc(C(C)CC(O)C2C=CC3C(=O)N(c4ccccc4)C(=O)C3N2Nc2ccc(C(C)C)cc2)o1 (stereo not given)" label="label 1"
molecule=CN(C)CCCN1C(=O)[C@@]2(c3ccc([N+](=O)[O-])cc3)CC(=O)N(CC34CC5CC(CC(C5)C3)C4)[C@@H]2c2ccc(CO)cc21 label="label 0"
molecule=C=CCOC(=O)[C@@H]1[C@H]2C(=O)O[C@H](c3ccccc3)[C@H](c3ccccc3)N2[C@H](c2ccc(OCCOC(=O)[C@H]3C[C@H]4C(=O)N[C@@H](CC(C)C)C(=O)N4[C@H]3c3ccc(O)cc3)cc2)[C@@]12C(=O)Nc1ccc(I)cc12 label="label 1"
molecule=CO[C@H]1O[C@H](CO)[C@@H](OC(=O)Nc2ccccc2-c2ccccc2)[C@H](OC(=O)Nc2ccc3c(c2)OCO3)[C@@H]1OC(=O)Nc1ccc2c(c1)OCO2 label="label 1"
molecule=O=C1O[C@@H](c2ccccc2)[C@@H](c2ccccc2)N2[C@@H](c3ccc(O)cc3)[C@]3(C(=O)Nc4ccc(C#CCCO)cc43)[C@@H](C(=O)NC[C@H](O)c3ccccc3)[C@H]12 label="label 0"
molecule=Cc1ccc(F)cc1S(=O)(=O)N[C@@H]1CCN(Cc2ccc(Oc3ccccc3)cc2)C1 label="label 0"
molecule=CCCC[C@@H]1C[C@H]1[C@@H](NC(=O)c1cccnc1)c1ccc(-c2ccccc2)cc1 label="label 0"
molecule=CCOC(=O)C[C@H]1[C@H](OC(=O)Cc2ccc3c(c2)OCO3)[C@@H](NC(=O)Cc2ccc(OC)cc2)c2cc(OCCCO)ccc2N1C(=O)c1ccccc1 label="label 1"
molecule=NC(=O)NCC#Cc1ccc2c(c1)[C@]1(C(=O)N2)[C@H](C(=O)O)[C@H]2C(=O)O[C@H](c3ccccc3)[C@H](c3ccccc3)N2[C@@H]1c1ccccc1OCCO label="label 1"
molecule=C=CCOC(=O)[C@H]1[C@@H]2C(=O)O[C@@H](c3ccccc3)[C@@H](c3ccccc3)N2[C@@H](c2ccc(OCCOC(=O)[C@H]3C[C@H]4C(=O)N[C@@H](Cc5ccccc5)C(=O)N4[C@H]3c3cccc(OCCO)c3)cc2)[C@]12C(=O)Nc1ccc(I)cc12 label="label 0"
molecule="COc1ccc(C(O)C2C=CC3C(=O)N(Cc4ccccc4)C(=O)C3N2n2cnnc2)c2ccccc12 (stereo not given)" label="label 0"
molecule=COCCOC(=O)N1C(=O)[C@@]2(c3cc(C#CCNC(N)=O)ccc31)[C@H](C(=O)N1CCCCCCC1)[C@H]1C(=O)O[C@H](c3ccccc3)[C@H](c3ccccc3)N1[C@@H]2c1ccc(O)cc1 label="label 0"
molecule=COc1ccc(C#Cc2ccc3c(c2)[C@]2(C(=O)N3)[C@H](C(=O)N3CCc4cc(OC)c(OC)cc4C3)[C@H]3C(=O)O[C@H](c4ccccc4)[C@H](c4ccccc4)N3[C@@H]2c2ccc(O)cc2)cc1 label="label 1"
molecule=COc1cc(CO)cc(I)c1O[C@H]1C=C(C(=O)NCCO)C[C@@H](N(CC2CCCCC2)C(=O)c2ccc(C(F)(F)F)cc2)[C@@H]1O label="label 0"
molecule=C=C(CCCC)C(=O)CC[C@@H](OC(=O)c1cccnc1)c1ccccc1OCCO label="label 0"
molecule=Cc1ccc(S[C@]2(C(=O)NC(C)C)CC(=O)N(Cc3ccccc3C(F)(F)F)[C@@H]2c2ccc(CO)cc2I)cc1 label="label 0"
molecule="C[C@H]1C2=C3C(CC[C@H]4C(OCc5ccc(F)cc5C(F)(F)F)OC[C@](C)([C@@H]34)N(C(=O)OC(C)(C)C)C2)C(CO)C1CO (stereo not given in full)" label="label 1"
molecule=COC(=O)[C@@]1(Cc2ccc(F)cc2)[C@H]2c3cc(C(=O)N4CCCC4)n(CCF)c3C[C@H]2CN1C(=O)c1ccccc1 label="label 1"
molecule="CN1C(=O)C2C(C1=O)C1C=C(c3ccc(CO)cc3)C2C(c2cccs2)N1Cc1cccc(OC(F)(F)F)c1 (stereo not given)" label="label 1"
molecule=CCOC(=O)C[C@H]1[C@H](OC(=O)c2ccc(-c3ccccc3)cc2)[C@@H](NC(=O)c2ccc3ccccc3c2)c2cc(OCCCO)ccc2N1C(=O)c1ccc2ccccc2n1 label="label 1"
molecule=CC(C)CNC(=O)[C@@]1(c2ccc([N+](=O)[O-])cc2)CC(=O)N(C2CCCCC2)[C@@H]1c1ccc(CO)cc1I label="label 0"
molecule=COc1cc2c(cc1OC)CN(C(=O)[C@H]1[C@@H]3C(=O)O[C@@H](c4ccccc4)[C@@H](c4ccccc4)N3[C@@H](c3ccc(OCCO)cc3)[C@]13C(=O)Nc1ccc(C#CC4(O)CCCCCC4)cc13)CC2 label="label 1"
molecule="CC(C)OC(=O)CC(=O)CC(O)c1cccc(C#N)c1 (stereo not given)" label="label 1"
